Test system: UniProt Q9GZT4
Sequence (Q9GZT4 whole entry): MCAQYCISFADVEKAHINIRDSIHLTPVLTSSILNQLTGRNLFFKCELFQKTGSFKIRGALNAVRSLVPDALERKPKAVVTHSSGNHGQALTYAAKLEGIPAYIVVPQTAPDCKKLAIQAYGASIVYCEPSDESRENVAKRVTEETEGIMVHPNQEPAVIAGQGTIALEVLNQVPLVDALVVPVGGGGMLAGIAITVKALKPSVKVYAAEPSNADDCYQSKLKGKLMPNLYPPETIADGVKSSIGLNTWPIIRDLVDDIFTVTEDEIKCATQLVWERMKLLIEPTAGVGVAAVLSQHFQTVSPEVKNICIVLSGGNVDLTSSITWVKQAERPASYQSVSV
Protocol text: SR activity assay, reference inhibitor (Supplementary Fig. S6)
pIC50: −log10 of the molar value.
Reported metric: pIC50

INSERT INTO assay_data (compound, measured) VALUES
  ('O=C(O)CC(=O)O [malonate]', 3.35);
